Assay: Aqueous solubility of compound at pH 7.4
Type: physicochemical

STRUCTURE: CS(=O)(=O)c1cccc(Nc2nccc(Nc3c(Cl)ccc4c3OCO4)n2)c1
MEASUREMENT UNITS: µM
solubility: 30

###

Target protein (sequence): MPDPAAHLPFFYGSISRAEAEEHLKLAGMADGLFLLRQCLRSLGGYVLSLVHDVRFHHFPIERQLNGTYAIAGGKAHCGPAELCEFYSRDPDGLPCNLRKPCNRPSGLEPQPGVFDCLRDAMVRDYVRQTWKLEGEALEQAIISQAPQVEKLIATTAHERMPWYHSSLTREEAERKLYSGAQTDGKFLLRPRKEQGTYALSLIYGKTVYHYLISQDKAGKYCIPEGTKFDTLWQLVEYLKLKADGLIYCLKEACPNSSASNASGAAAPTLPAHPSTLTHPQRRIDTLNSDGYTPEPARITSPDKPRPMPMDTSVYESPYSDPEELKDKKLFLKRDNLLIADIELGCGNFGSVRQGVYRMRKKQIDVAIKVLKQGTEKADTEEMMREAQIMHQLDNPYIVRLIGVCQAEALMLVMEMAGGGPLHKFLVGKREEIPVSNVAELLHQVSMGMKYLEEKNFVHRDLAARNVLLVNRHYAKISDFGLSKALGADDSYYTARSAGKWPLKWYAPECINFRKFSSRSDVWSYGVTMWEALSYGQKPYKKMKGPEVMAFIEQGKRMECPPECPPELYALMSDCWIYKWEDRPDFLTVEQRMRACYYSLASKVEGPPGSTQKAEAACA

STRUCTURE: CS(=O)(=O)c1cccc(Nc2nccc(Nc3c(Cl)ccc4c3OCO4)n2)c1
IC50: > 30 µM

###

Assay: Bioavailability in Han Wistar rat at 5 umol/kg, po
Type: ADME, organism-based
Conditions: in vivo

STRUCTURE: CS(=O)(=O)c1cccc(Nc2nccc(Nc3c(Cl)ccc4c3OCO4)n2)c1
bioavailability: 30%

###

Target: Serine/threonine-protein kinase PLK1 (Homo sapiens)
Sequence (P53350 whole entry): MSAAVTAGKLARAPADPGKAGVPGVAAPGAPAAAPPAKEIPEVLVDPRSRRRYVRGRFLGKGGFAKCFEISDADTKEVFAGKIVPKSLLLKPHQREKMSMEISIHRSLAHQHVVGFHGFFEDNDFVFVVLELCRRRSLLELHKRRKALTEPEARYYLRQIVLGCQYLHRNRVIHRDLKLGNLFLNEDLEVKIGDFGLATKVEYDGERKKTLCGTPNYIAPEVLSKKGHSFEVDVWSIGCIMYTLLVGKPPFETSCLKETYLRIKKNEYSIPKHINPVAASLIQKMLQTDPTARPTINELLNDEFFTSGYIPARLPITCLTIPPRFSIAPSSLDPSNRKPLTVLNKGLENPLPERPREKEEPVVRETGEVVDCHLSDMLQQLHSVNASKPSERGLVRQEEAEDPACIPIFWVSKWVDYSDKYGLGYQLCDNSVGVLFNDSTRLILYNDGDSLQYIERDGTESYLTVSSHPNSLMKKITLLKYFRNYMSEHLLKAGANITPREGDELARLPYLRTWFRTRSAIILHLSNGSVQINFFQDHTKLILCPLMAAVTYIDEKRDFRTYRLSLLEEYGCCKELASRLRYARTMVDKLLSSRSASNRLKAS

STRUCTURE: CS(=O)(=O)c1cccc(Nc2nccc(Nc3c(Cl)ccc4c3OCO4)n2)c1
IC50: > 30 µM

###

The following molecules have recorded IC50 on Ephrin type-B receptor 4 (Homo sapiens).
PROPERTY: IC50 (µM)

STRUCTURE: Fc1ccccc1Nc1nccc(Nc2c(Cl)ccc3c2OCO3)n1
NUMERIC READOUT: 5

STRUCTURE: Clc1ccccc1Nc1nccc(Nc2c(Cl)ccc3c2OCO3)n1
NUMERIC READOUT: 11.3

STRUCTURE: N#Cc1ccc(Nc2nccc(Nc3c(Cl)ccc4c3OCO4)n2)cc1
NUMERIC READOUT: 1.25

STRUCTURE: Fc1ccc(Nc2nccc(Nc3c(Cl)ccc4c3OCO4)n2)cc1
NUMERIC READOUT: 2.3

STRUCTURE: Cc1ccc(Nc2nccc(Nc3c(Cl)ccc4c3OCO4)n2)cc1
NUMERIC READOUT: 1.6

STRUCTURE: COc1cc(Nc2ncnc(Nc3c(Cl)ccc4c3OCO4)n2)cc(OC)c1OC
NUMERIC READOUT: 2.96

###

Assay: AUC in Han Wistar rat at 5 umol/kg, po
Assay type: ADME, organism-based
Conditions: plasma

STRUCTURE: CS(=O)(=O)c1cccc(Nc2nccc(Nc3c(Cl)ccc4c3OCO4)n2)c1
AUC (µM·h): 4

###

Experiment: Half life in Han Wistar rat at 5 umol/kg, po
Type: ADME, organism-based
Conditions: in vivo
PROPERTY: half-life (h)

STRUCTURE: CS(=O)(=O)c1cccc(Nc2nccc(Nc3c(Cl)ccc4c3OCO4)n2)c1
NUMERIC READOUT: 5.3

###

Target: Vascular endothelial growth factor receptor 2 (Homo sapiens)
Sequence (P35968 whole entry): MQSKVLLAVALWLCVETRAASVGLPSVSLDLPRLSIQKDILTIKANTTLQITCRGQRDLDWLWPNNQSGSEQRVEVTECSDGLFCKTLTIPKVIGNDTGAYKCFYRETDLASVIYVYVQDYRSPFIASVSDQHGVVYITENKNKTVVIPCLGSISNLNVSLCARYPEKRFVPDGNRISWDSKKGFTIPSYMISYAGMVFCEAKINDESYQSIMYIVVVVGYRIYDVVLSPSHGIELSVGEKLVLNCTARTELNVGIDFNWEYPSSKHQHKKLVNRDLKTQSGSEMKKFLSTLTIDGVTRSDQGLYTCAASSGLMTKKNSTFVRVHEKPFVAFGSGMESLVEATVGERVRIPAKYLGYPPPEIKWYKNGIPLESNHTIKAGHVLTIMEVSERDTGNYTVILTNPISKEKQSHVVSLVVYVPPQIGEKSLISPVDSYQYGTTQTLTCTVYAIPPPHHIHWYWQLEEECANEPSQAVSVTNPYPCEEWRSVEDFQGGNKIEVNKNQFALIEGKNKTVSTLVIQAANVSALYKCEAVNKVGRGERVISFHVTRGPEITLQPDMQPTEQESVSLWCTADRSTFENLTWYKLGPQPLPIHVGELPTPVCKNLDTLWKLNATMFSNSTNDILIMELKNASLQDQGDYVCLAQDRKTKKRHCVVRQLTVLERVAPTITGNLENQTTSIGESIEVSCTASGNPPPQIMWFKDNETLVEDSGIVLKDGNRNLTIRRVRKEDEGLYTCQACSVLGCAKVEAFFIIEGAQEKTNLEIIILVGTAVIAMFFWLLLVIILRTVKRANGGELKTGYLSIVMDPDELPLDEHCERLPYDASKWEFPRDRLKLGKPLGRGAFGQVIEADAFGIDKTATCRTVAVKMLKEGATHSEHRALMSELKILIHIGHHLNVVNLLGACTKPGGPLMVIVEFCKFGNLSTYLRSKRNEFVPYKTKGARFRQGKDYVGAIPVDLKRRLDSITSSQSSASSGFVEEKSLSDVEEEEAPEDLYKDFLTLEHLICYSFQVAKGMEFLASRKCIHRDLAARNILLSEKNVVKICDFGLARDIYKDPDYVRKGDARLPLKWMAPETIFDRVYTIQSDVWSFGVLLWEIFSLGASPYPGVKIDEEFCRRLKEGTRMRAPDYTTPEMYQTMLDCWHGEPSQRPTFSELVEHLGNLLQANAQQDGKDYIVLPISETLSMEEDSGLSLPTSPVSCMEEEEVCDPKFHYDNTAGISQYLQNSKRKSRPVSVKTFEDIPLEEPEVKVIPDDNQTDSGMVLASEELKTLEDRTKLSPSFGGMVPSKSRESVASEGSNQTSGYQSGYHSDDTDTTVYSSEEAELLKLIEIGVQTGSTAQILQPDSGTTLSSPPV
Test: Inhibition of KDR

STRUCTURE: CS(=O)(=O)c1cccc(Nc2nccc(Nc3c(Cl)ccc4c3OCO4)n2)c1
IC50: > 30 µM

###

Molecular target: Insulin-like growth factor 1 receptor (Homo sapiens)
Sequence (P08069 31-736 limits assumed): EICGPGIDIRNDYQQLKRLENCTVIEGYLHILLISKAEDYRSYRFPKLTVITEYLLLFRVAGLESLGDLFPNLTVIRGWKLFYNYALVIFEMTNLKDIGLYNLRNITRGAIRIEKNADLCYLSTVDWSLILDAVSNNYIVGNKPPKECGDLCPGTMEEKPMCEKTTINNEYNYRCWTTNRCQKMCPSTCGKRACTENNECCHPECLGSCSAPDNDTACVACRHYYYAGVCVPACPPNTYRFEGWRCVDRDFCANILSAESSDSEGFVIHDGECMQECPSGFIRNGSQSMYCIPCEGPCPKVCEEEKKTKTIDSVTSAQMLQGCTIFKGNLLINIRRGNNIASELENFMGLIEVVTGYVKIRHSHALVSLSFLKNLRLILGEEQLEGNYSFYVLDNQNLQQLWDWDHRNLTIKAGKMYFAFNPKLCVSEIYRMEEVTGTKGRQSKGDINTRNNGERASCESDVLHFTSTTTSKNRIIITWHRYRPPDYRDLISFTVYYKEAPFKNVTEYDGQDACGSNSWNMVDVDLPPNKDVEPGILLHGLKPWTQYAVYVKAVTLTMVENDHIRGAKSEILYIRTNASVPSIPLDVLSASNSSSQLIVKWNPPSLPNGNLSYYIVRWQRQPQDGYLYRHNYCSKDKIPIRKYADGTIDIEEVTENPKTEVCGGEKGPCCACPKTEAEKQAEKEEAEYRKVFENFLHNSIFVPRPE
Sequence (P08069 741-1367 limits assumed): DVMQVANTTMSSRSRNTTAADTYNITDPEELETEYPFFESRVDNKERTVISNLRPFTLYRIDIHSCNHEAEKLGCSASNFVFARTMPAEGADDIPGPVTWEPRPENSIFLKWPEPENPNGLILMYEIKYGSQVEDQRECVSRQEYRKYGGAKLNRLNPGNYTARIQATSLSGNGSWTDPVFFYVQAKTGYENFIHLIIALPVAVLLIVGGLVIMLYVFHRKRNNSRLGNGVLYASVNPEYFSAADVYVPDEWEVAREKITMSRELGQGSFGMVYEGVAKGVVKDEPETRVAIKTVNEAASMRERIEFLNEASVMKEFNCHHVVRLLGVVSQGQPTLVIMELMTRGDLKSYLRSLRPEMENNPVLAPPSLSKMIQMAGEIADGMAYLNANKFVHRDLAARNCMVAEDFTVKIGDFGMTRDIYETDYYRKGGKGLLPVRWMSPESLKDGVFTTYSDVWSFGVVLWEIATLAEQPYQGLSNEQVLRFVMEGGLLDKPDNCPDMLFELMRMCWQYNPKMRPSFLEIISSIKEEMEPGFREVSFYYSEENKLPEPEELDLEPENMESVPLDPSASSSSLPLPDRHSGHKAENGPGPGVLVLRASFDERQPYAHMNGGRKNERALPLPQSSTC
PROPERTY: IC50

STRUCTURE: CS(=O)(=O)c1cccc(Nc2nccc(Nc3c(Cl)ccc4c3OCO4)n2)c1
MEASURED TARGET: Insulin-like growth factor 1 receptor (Homo sapiens)
RESULT: > 30 µM

###

Target: Proto-oncogene tyrosine-protein kinase Src (Homo sapiens, UniProt P12931)
Sequence (P12931 2-536 limits assumed): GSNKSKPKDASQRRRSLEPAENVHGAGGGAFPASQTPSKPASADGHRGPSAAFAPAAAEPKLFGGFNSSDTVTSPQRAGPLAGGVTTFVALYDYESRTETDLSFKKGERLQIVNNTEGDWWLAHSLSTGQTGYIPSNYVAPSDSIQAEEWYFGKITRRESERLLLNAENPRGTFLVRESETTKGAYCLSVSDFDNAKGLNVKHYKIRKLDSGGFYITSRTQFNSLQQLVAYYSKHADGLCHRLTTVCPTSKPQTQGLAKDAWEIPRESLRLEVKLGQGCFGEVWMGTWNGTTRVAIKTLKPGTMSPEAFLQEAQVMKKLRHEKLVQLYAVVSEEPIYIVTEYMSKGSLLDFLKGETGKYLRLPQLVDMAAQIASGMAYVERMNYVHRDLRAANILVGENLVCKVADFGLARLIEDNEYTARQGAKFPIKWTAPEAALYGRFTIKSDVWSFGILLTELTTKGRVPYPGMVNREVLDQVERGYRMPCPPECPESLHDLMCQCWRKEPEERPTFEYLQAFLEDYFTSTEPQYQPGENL

STRUCTURE: CS(=O)(=O)c1cccc(Nc2nccc(Nc3c(Cl)ccc4c3OCO4)n2)c1
IC50: < 100 nM

###

Target: Cyclin-dependent kinase 2 (Homo sapiens, UniProt P24941)
PROPERTY: IC50 (µM)

STRUCTURE: CS(=O)(=O)c1cccc(Nc2nccc(Nc3c(Cl)ccc4c3OCO4)n2)c1
NUMERIC READOUT: 17.6

###

Experiment: Lipophilicity, Log D of compound at pH 7.4
Type: physicochemical
Conditions: buffer
PROPERTY: logD

STRUCTURE: CS(=O)(=O)c1cccc(Nc2nccc(Nc3c(Cl)ccc4c3OCO4)n2)c1
PROPERTY: logD
NUMERIC READOUT: 3.13

###

Target: Ephrin type-B receptor 2 (Homo sapiens, UniProt P29323)
Sequence (P29323 whole entry): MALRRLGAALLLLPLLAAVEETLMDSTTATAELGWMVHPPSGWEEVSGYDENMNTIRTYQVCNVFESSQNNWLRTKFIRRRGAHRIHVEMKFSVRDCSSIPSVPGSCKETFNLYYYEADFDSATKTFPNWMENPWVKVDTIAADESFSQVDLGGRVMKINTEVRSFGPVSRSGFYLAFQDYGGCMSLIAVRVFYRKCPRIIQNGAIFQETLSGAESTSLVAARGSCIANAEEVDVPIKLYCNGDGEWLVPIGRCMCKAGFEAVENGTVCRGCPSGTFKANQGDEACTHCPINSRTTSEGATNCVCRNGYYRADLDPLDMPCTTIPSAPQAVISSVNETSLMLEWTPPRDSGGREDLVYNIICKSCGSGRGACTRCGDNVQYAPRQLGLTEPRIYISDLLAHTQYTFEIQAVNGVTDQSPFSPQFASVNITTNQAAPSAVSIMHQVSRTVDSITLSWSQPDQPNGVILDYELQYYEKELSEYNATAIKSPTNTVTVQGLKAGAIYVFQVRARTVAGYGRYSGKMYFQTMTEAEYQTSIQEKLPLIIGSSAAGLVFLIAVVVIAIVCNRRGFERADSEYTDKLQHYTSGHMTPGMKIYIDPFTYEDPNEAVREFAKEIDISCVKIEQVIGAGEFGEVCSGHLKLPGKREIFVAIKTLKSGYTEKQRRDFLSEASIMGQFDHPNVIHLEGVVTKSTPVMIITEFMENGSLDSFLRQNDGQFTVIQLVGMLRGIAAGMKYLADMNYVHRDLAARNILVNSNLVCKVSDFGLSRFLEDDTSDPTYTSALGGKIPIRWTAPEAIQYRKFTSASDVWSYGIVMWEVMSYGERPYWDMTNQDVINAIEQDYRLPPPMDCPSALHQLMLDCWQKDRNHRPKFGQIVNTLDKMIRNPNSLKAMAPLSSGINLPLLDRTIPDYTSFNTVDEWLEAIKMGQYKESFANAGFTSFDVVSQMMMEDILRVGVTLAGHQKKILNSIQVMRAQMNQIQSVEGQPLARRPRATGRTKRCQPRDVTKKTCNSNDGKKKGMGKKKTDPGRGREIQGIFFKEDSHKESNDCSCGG
Assay: Inhibition of EphB2

STRUCTURE: CS(=O)(=O)c1cccc(Nc2nccc(Nc3c(Cl)ccc4c3OCO4)n2)c1
IC50, nM: 50

###

Test: Clearance in Han Wistar rat at 5 umol/kg, po or 0.5 umol/kg, iv
Format: ADME, organism-based
Conditions: in vivo
PROPERTY: clearance (L/h/kg)

STRUCTURE: CS(=O)(=O)c1cccc(Nc2nccc(Nc3c(Cl)ccc4c3OCO4)n2)c1
MEASUREMENT UNITS: L/h/kg
NUMERIC READOUT: 0.366

###

Target: Ephrin type-B receptor 4 (Homo sapiens, UniProt P54760)
Sequence (P54760 whole entry): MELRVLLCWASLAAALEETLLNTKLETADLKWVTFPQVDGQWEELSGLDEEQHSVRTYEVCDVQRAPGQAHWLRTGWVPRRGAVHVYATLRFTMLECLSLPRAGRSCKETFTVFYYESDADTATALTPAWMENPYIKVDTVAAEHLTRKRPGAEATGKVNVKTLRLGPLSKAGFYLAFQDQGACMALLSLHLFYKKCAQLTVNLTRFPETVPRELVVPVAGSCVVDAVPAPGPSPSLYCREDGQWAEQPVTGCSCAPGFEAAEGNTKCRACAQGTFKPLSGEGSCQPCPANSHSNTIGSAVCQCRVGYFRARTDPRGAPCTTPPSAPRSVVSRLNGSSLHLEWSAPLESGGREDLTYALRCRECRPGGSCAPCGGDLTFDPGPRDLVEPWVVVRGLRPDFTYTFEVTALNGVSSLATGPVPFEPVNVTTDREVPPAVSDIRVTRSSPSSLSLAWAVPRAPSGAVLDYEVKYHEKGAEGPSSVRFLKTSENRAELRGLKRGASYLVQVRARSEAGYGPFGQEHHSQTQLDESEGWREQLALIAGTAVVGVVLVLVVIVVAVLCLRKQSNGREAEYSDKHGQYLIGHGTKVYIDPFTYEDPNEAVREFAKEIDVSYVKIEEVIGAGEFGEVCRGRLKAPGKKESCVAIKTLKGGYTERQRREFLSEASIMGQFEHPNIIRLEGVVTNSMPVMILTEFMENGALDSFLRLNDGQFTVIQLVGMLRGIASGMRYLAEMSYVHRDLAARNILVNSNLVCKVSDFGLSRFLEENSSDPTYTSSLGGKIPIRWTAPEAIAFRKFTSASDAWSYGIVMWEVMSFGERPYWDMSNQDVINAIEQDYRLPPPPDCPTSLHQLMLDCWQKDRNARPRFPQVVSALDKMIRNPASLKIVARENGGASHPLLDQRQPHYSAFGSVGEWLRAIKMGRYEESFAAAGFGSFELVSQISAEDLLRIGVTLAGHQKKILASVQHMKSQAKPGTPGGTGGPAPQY
Assay: Inhibition of EphB4
Listed next: entries and their corresponding IC50.

STRUCTURE: CS(=O)(=O)c1ccc(Nc2nccc(Nc3c(Cl)ccc4c3OCO4)n2)cc1
IC50 / nM: 630

STRUCTURE: COc1ccc(Nc2nccc(Nc3c(Cl)ccc4c3OCO4)n2)cc1
IC50 / nM: 1940

STRUCTURE: Cc1cccc(Nc2nccc(Nc3c(Cl)ccc4c3OCO4)n2)c1
IC50 / nM: 460

###

Experiment: Inhibition of JNK
pIC50: −log10 of the molar value.
PROPERTY: pIC50

STRUCTURE: CS(=O)(=O)c1cccc(Nc2nccc(Nc3c(Cl)ccc4c3OCO4)n2)c1
PROPERTY: pIC50
RESULT: < 4.52

Sourced from ChEMBL document CHEMBL1145633
